Reference source: patent US11638712B2

Molecular target: thrombin (Homo sapiens, UniProt P00734)
Construct: panel of serine proteases: uPA, tPA, thrombin, plasmin, FXIIa
Test: in vitro serine protease inhibition profile: thrombin
Type: biochemical
Settings: read-out: IC50 thrombin
observable: IC50

// query Tell me the measured IC50 of `N=C(N)c1ccc2cc(OC(=O)c3ccc(N=C(N)N)cc3)ccc2c1` , please.
// result ~500 µM

* * *

Target: cathepsinG (Homo sapiens, UniProt P08311)
Sequence (P08311 21-244, species assumed): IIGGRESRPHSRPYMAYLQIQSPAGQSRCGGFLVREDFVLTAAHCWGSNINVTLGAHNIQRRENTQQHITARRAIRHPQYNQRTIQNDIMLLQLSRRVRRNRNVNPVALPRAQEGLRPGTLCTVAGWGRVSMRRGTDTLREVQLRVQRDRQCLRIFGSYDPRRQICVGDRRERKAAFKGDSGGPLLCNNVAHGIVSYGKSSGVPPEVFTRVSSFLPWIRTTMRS
observable: IC50 (nM)
# number only, unit nM dropped from output

Look over these answered cases.
- molecule: "CC(=O)Nc1ccc(OP(=O)(Oc2ccc(NC(C)=O)cc2)C(Cc2ccc(NC(=N)N)cc2)NC(=O)OCc2ccccc2)cc1 (stereo not drawn)"
  readout_units: "nM"
  test_value: 120
- molecule: "COC(=O)NC(Cc1ccc(NC(=N)N)cc1)P(=O)(Oc1ccc(NC(C)=O)cc1)Oc1ccc(NC(C)=O)cc1 (stereo not drawn)"
  readout_units: "nM"
  test_value: 61

--- query ---
// query Tell me the measured IC50 of COC(=O)NC(Cc1ccc(NC(=N)N)cc1)P(=O)(Oc1ccccc1)Oc1ccccc1 (stereo not drawn) , please.
// result 329

* * *

Molecular target: KLK4 (Homo sapiens)
Sequence (Q9Y5K2 31-254, species assumed): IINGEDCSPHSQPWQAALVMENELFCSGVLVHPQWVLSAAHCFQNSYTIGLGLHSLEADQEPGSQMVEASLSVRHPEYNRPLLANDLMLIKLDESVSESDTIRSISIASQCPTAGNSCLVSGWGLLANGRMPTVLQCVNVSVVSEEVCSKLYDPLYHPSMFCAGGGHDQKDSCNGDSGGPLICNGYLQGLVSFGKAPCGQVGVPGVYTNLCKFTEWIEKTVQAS
Assay: in vitro serine protease inhibition profile: KLK4
Assay type: biochemical
Conditions: read-out: IC50 KLK4
observable: pIC50
Scale: pIC50 equals -log10([C]), with [C] in mol/L.

// query Tell me the measured pIC50 of N=C(N)Nc1ccc(CC(NC(=O)OCc2ccccc2)P(=O)(Oc2ccccc2)Oc2ccccc2)cc1 (stereo not shown) , please.
// result 7.92

* * *

Molecular target: tPA (Homo sapiens)
Sequence (P00750 36-562, species assumed): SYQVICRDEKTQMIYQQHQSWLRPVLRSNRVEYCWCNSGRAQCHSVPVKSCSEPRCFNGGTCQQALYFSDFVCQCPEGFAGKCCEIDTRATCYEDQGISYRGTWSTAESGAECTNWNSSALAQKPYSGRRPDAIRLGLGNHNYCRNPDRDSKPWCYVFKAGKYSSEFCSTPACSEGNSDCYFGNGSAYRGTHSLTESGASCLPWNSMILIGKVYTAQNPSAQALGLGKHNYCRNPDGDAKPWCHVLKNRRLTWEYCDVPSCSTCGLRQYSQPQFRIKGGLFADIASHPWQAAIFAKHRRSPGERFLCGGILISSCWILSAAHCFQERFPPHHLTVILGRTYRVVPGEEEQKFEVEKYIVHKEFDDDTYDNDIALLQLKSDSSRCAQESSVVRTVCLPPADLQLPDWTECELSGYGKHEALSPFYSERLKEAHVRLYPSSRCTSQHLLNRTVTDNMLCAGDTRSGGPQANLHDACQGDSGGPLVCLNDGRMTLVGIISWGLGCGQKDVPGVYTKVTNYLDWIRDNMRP
Assay: in vitro serine protease inhibition profile: tPA
Format: biochemical
pIC50: −log10 of the molar value.
pIC50 listing for selected compounds.

Look over these answered cases.
- compound: "N=C(N)Nc1ccc(CC(NC(=O)OCc2ccccc2)P(=O)(Oc2ccccc2)Oc2ccccc2)cc1 (stereo not shown)"
  pIC50: "< 5.60"
- compound: "CC(=O)Nc1ccc(OP(=O)(Oc2ccc(NC(C)=O)cc2)C(Cc2ccc(NC(=N)N)cc2)NC(=O)OCc2ccccc2)cc1 (stereo not shown)"
  pIC50: "< 5.60"
- compound: "COC(=O)NC(Cc1ccc(NC(=N)N)cc1)P(=O)(Oc1ccccc1)Oc1ccccc1 (stereo not shown)"
  pIC50: "< 5.60"

// query Tell me the measured pIC50 of COC(=O)NC(Cc1ccc(NC(=N)N)cc1)P(=O)(Oc1ccc(NC(C)=O)cc1)Oc1ccc(NC(C)=O)cc1 (stereo not shown) , please.
// result < 5.60

* * *

pIC50 listing for selected molecules.
Biological target: tryptase (Homo sapiens)
Sequence (Q15661 31-275): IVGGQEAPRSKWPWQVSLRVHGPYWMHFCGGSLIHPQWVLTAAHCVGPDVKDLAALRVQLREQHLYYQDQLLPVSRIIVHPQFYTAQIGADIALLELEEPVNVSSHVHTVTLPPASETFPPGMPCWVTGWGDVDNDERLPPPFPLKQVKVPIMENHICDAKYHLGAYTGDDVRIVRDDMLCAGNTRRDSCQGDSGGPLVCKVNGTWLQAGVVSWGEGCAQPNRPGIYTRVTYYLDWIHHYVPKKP
Assay: in vitro serine protease inhibition profile: tryptase
Type: biochemical
Scale: pIC50 equals -log10([C]), with [C] in mol/L.

Look over these answered cases.
- molecule: "CC(=O)Nc1ccc(OP(=O)(Oc2ccc(NC(C)=O)cc2)C(Cc2ccc(NC(=N)N)cc2)NC(=O)OCc2ccccc2)cc1 (stereo not shown)"
  test_value: 8.30
- molecule: "COC(=O)NC(Cc1ccc(NC(=N)N)cc1)P(=O)(Oc1ccc(NC(C)=O)cc1)Oc1ccc(NC(C)=O)cc1 (stereo not shown)"
  test_value: 8.52
- molecule: "N=C(N)Nc1ccc(CC(NC(=O)OCc2ccccc2)P(=O)(Oc2ccccc2)Oc2ccccc2)cc1 (stereo not shown)"
  test_value: 7.08

--- query ---
// query Tell me the measured pIC50 of COC(=O)NC(Cc1ccc(NC(=N)N)cc1)P(=O)(Oc1ccccc1)Oc1ccccc1 (stereo not shown) , please.
// result 7.03
